assay: soluble on expression in E. coli; label from the status in PepcDB or PDB records
METRIC_NAME: soluble on expression in E. coli

>  <ITEM_SEQUENCE>
MDSFKVVLEGPAPWGFRLQGGKDFNVPLSISRLTPGGKAAQAGVAVGDWVLNIDGENAGSLTHIEAQNKIRACGERLSLGLSRAQPVQSKPQKVQTSDKQLLRQPVPDASKQRLMEDTEDWRPRPGTGQSRSFRILAHLTGTEFMQDPDEEFMKKSREKYVLELQSPRYTRLRDWHHQRSAHVLNVQS

>  <soluble on expression in E. coli>
soluble

$$$$
>  <ITEM_SEQUENCE>
MSKILVFGHQNPDSDAIGSSYAFAYLAREAYGLDTEAVALGEPNEETAFVLDYFGVAAPRVITSAKAEGAEQVILTDHNEFQQSVADIAEVEVYGVVDHHRVANFETASPLYMRLEPVGSASSIVYRMFKEHGVAVPKEIAGLMLSGLISDTLLLKSPTTHPTDKVIAPELAELAGVNLEEYGLAMLKAGTNLASKSAEELIDIDAKTFELNGNNVRVAQVNTVDIAEVLERQAEIEAAIEKAIADNGYSDFVLMITDIINSNSEILAIGSNMDKVEAAFNFVLENNHAFLAGAVSRKKQVVPQLTESFNA

>  <soluble on expression in E. coli>
soluble

$$$$
>  <ITEM_SEQUENCE>
MGSDKIHHHHHHMHVGRENSSFQICNSSQDIRKSDILDAMSIRFRQLQAFHATFETGTVTGAATLLGISQPGISNLLAQLERETRFKLFERVKGRLIPTPEAGVLYQEVDTVVRGLDHVGQAVTDLQNKQGGQLQVASQHAMSFGFMPKLIAQFAKTRPDMSISFQSQYSSKVQEWVMSGLFEIGVCETPQLYDALDTHPFQVEMQLTLHPDNPLARHDILTPELCGAEPFIVMGPDHMTHRRTREAFHTAGVPWNTRVHTHLFKNMLSFVQEDMGVAILDPFLLDHDESGSFVTRPFAPAIHMDMMVITSATRPLSTLALDFLDLLLTGIAQSDRRRVSPSNAAPGRPPLPMAAR

>  <soluble on expression in E. coli>
not soluble

$$$$
>  <ITEM_SEQUENCE>
MSLKLGIIGSGKIVHDFLTAIDQINNLDVVAISSTKRSENIAQELAKKYSINKTYTDNDELMSDPDVDTVYVAVPNFLHYQVAKAALEHGKNVICEKPFVDSTNEAKKLKQLADEKNLIIVEAITNIYLENFKRIQREIENIAPIHIVSLNYTQYSSRYDDFLKGKIAPVFDPAKDGGTLMDLNIYNIHLVSALFGLPDKVKYYANMQKGVDTSGILHLSYPDKQAALIAAKDSYVTPRSFIEGEKGSIYIDGSTGELNNFTIEMRDQKPKRYNLNKYSHRMASEFNAFVEMIDNHDKVKADEAFVNTLESMQILTTAKNSEEGHHHHHH

>  <soluble on expression in E. coli>
soluble

$$$$
>  <ITEM_SEQUENCE>
MSLQMDQYLAQPLMIQEAQLVTIASGTTLSRELAQLTEQAWIQDSFVAEWVRRFHPELSKIKAGTYKLQPDMSLEQALALLVSGKEHQFSITFVEGSRFQEWRDILASNENITQQLTGLTEIDIAKALGIEHEKLEGLFLAETYHFTKGTSDVEILKRANQKLEKFLQVTWEHRQEGLPIQTPYEALILASIIEKETSIAEERERIAAVFINRLNKRMRLQTDPTVIYGMGETYDGNIRKKDLRARTPYNTYVINGLPPTPIAMPGEASIYAALNPEQSDYLYFVASGEGGHNFSKTLADHNRAVRAYLKKLRTKQEGHHHHHH

>  <soluble on expression in E. coli>
soluble

$$$$

Asked: Specify soluble on expression in E. coli for MGSSHHHHHHSSGLVPRGSHMMIVIMDNGGQYVHRIWRTLRYLGVETKIIPNTTPLEEIKAMNPKGIIFSGGPSLENTGNCEKVLEHYDEFNVPILGICLGHQLIAKFFGGKVGRGEKAEYSLVEIEIIDEDEIFKGLPKRLKVWESHMDEVKELPPKFKILARSETCPIEAMKHEELPIYGVQFHPEVAHTEKGEEILRNFAKLCGEL and stop.
Given back: soluble

Sourced from the DeepSol protein solubility set
